- target-under-test: T1, 4H570-AA
- T1 chain: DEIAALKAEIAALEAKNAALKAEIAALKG
- test: two-hybrid library CCmax;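 further: natural log of median RNA to DNA barcode read ratio; higher means stronger binding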
- condition-parameters: mean of both orientations
Below is a list of entries, each paired with its recorded interaction score value.

query: // interaction score lookup, key: DKNAALKAEIAALKAKNAALEAEIAALEG [4H3697-AA]
result: 0.23

Turning now to a further binder:
query: // interaction score lookup, key: DENAALKAKIAALKAEIAALEAKNAALKG [4H1864-AA]
result: -0.57
